Tested on: OPM-2 cells
Assay: Cell viability assay (OPM-2 cells), CCK-8
Type: cell-based
Conditions: Homo sapiens, OPM-2, 24 h, WST, 5% FBS, read-out: OPM2 (WST, 5% FBS)
Procedure: Cell Viability Assay (OPM-2 Cells) OPM-2 cells were obtained from Deutsche Sammlung von Mikroorganismen und Zellkulturen GmbH (DSMZ). […] The effect of representative Compounds of the Disclosure on cell viability was determined using Cell Counting Kit-8 (CCK-8) assay (Shanghai Life iLab Bio Technology) according to the manufacturer's instructions. […] The plates were read at 450 nm on the microplate spectrophotometer (SpectraMax plus 384, Molecular devices). […]
test.readout: pIC50
Note: pIC50 values are expressed as the negative base-10 logarithm of concentration in M.

Data request: Determine from records and report pIC50 for `Cn1nc2cc1CSc1cc(c3ccccc3c1)OCCCc1c(C(=O)O)n(C)c3c(c(Cl)ccc13)-c1c(nn3c1CCCC3)CSC2`
Data returned: 6.76

Data request: Name the recorded pIC50 of the item `Cn1nc2cc1CSc1cc(c3ccccc3c1)OCCCc1c(C(=O)O)n(C)c3c(c(Cl)ccc13)-c1c(nn3c1CCC3)CS(=O)(=O)C2` in your answer.
Data returned: 5.93

Data request: Give pIC50 for `Cn1nc2cc1CSCc1nn3c(c1-c1c(Cl)ccc4c(c(C(=O)O)n(C)c14)CCCOc1cc(cc4ccccc14)SC2)CCC3`
Data returned: 6.11

* * *

# key: entry, value: solubility
Experiment: Kinetic solubility assay
Assay type: physicochemical
Conditions: PBS buffer pH 6.5, aqueous buffer, thermodynamic from solid; pH 6.5 PBS buffer, HPLC; read-out: Solubility (pH 6.5, μg/mL)
Numbers only here, please. The scale is µg/mL.

chemical.string: Cn1nc2cc1CSc1cc(c3ccccc3c1)OCCCc1c(C(=O)O)n(C)c3c(c(Cl)ccc13)-c1c(nn3c1CSCC3)CSC2
observed.measurement: 3

Data request: Give solubility for the following compound: `Cn1nc2cc1CSc1cc(c3ccc(F)cc3c1)OCCCc1c(C(=O)O)n(C)c3c(c(Cl)ccc13)-c1c(nn3c1CCCC3)CSC2`
Data returned: 1

Data request: Give the reported value of solubility for this record: `Cn1nc2cc1CSc1cc(c3ccc(F)cc3c1)OCCCc1c(C(=O)O)n(C)c3c(c(Cl)ccc13)-c1c(nn3c1CCC3)CSC2`
Data returned: 52

Data request: Provide one value: measured solubility of `Cc1oc2nc1CSc1cc(c3ccccc3c1)OCCCc1c(C(=O)O)n(C)c3c(c(Cl)ccc13)-c1c(nn3c1OCC3)CSC2`
Data returned: 127

* * *

Observed pIC50, system Mcl-1 protein (residues 171-323) (Homo sapiens, UniProt Q07820).
Value format note: pIC50 is -log10 of concentration (mol/L); just state the number.

Examples from the recorded data:
compound: Cc1cc2ccc1CSCc1nn3c(c1-c1c(Cl)ccc4c(c(C(=O)O)n(C)c14)CCCOc1cc(cc4cc(F)ccc14)SC2)CCC3 [compound 29]
test.readout: pIC50
observed.measurement: 7.83

compound: Cn1nc2cc1CSc1cc(c3ccc(F)cc3c1)OCCCc1c(C(=O)O)n(C)c3c(c(Cl)ccc13)-c1c(nn3c1COCC3)CN(S(=O)(=O)C1CC1)C2 [compound 43]
test.readout: pIC50
observed.measurement: 7.92

compound: Cn1c(C(=O)O)c2c3ccc(Cl)c(c31)-c1c(nn3c1CCC3)CSCC1=NC=C(CSc3cc(c4ccccc4c3)OCCC2)S1 [compound 4]
test.readout: pIC50
observed.measurement: 7.72

compound: Cn1nc2cc1CSc1cc(c3cc(Cl)ccc3c1)OCCCc1c(C(=O)O)n(C)c3c(c(Cl)ccc13)-c1c(nn3c1COCC3)CSC2 [compound 18]
test.readout: pIC50
observed.measurement: 7.72

compound: Cc1c(Cl)cc2cc1SCc1cc(nn1C)CSCc1nn3c(c1-c1c(Cl)ccc4c(c(C(=O)O)n(C)c14)CCCO2)CCCC3 [Cpd. No. 37]
test.readout: pIC50
observed.measurement: 7.42

compound: Cn1nc2cc1CSc1cc(c3ccc(F)cc3c1)OCCCc1c(C(=O)O)n(C)c3c(c(Cl)ccc13)-c1c(nn3c1CCC3)CSC2 [compound 27]
test.readout: pIC50
observed.measurement: 7.60

compound: Cn1nc2cc1CSc1cc(c3ccc(F)cc3c1)OCCCc1c(C(=O)O)n(C)c3c(c(Cl)ccc13)-c1c(nn3c1COCC3)CN(S(C)(=O)=O)C2 [compound 42]
test.readout: pIC50
observed.measurement: 7.77

compound: Cn1nc2cc1CSc1cc(cc(C(F)(F)F)c1)OCCCc1c(C(=O)O)n(C)c3c(c(Cl)ccc13)-c1c(nn3c1COCC3)CSC2 [Cpd. No. 33]
test.readout: pIC50
observed.measurement: 7.92

--- query ---
Data request: Find the measured pIC50 of Cn1nc2cc1CSc1cc(c3ccccc3c1)OCCCc1c(C(=O)O)n(C)c3c(c(Cl)ccc13)-c1c(nn3c1CCC3)CSC2 [compound 1] and report it.
Data returned: 7.82

From: patent US12319703B2
